Target or test system: UniProt Q16539

[
  {
    "Smiles notation": "C[C@H](Nc1cc(-c2c(-c3ccc(F)cc3)nc3nc(N)ccn23)ccn1)c1ccccc1",
    "Unit spec": "nM",
    "IC50": 1
  }
]

----------
Target or test system: MAPK14 (human)
Test summary: Inhibition of LPS-Induced TNF-alpha Production in Human Peripheral Blood Mononuclear Cell
Conditions used: pbmc
pIC50: −log10 of the molar value.
Decide using pIC50: a value greater than or equal to 9 is criterion met, a smaller one is criterion not met.

[
  {
    "Smiles notation": "Nc1ccn2c(-c3ccnc(N[C@H]4CCCc5ccccc54)c3)c(-c3ccccc3)nc2n1",
    "Target or test system": "MAPK14 (human)",
    "Label": "criterion not met"
  },
  {
    "Smiles notation": "Fc1ccc(-c2[nH]c3ccc4[nH]c(Cc5ccccc5)nc4c3c2-c2ccncc2)cc1",
    "Target or test system": "MAPK14 (human)",
    "Label": "criterion not met"
  },
  {
    "Smiles notation": "Nc1ccn2c(-c3ccncc3)c(-c3ccc(F)cc3)nc2n1",
    "Target or test system": "MAPK14 (human)",
    "Label": "criterion not met"
  },
  {
    "Smiles notation": "COC[C@H](C)Nc1cc(-c2c(-c3ccccc3)nc3nc(N)ccn23)ccn1",
    "Target or test system": "MAPK14 (human)",
    "Label": "criterion met"
  },
  {
    "Smiles notation": "C[C@H](Nc1cc(-c2c(-c3ccc(F)cc3)nc3nc(N)ccn23)ccn1)c1ccccc1",
    "Target or test system": "MAPK14 (human)",
    "Label": "criterion not met"
  },
  {
    "Smiles notation": "C[C@@H](Nc1nccc(-c2c(-c3ccccc3)nc3nc(N)ccn23)n1)c1ccccc1",
    "Target or test system": "MAPK14 (human)",
    "Label": "criterion not met"
  }
]
